Origin of the recorded values: patent US9926282B2

- ASSAYED_SYSTEM: ROCK2 (Homo sapiens (Human), UniProt O75116)
- Sequence (O75116 whole entry, species assumed): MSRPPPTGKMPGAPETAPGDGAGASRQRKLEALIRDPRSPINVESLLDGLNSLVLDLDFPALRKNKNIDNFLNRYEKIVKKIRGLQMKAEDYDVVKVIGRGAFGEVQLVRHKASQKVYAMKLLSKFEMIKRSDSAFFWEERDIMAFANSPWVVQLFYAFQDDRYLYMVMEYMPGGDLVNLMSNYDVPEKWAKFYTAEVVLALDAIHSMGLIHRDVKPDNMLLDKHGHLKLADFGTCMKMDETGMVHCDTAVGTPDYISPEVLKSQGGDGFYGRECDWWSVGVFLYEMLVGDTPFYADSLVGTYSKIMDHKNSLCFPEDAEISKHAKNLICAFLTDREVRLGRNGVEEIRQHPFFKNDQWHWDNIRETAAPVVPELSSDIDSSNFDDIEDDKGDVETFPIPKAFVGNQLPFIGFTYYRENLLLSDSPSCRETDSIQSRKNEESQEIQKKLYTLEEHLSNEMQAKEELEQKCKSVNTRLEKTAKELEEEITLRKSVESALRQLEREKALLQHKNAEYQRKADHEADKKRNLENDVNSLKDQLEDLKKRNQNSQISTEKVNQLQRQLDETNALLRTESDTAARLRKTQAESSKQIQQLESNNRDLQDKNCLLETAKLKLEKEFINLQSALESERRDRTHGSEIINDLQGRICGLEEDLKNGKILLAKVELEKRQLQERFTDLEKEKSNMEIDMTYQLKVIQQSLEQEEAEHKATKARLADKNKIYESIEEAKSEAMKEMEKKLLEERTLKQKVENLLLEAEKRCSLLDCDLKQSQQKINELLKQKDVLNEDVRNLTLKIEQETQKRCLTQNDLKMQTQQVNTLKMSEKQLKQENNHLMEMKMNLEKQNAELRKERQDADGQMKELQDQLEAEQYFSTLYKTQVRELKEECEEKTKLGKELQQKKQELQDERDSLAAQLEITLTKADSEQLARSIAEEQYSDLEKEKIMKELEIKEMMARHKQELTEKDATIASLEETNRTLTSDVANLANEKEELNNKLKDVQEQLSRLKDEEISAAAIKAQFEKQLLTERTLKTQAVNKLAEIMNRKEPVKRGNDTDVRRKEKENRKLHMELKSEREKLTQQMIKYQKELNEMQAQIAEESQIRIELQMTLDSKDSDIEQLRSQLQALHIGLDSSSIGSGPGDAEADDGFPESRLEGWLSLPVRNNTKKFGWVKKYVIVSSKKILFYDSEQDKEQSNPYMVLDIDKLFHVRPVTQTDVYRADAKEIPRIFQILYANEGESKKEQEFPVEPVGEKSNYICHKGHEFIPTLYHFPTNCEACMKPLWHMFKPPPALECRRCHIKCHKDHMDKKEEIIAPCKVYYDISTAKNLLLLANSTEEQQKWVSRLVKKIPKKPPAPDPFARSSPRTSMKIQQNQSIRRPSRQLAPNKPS
- EXPERIMENT_NOTES: ROCK assay (LABCHIP peptide phosphorylation), ROCK2
- Format: biochemical
- CONDITION_SUMMARY: 5 μM ATP, 1.5 μM peptide substrate
METRIC: IC50

Cc1ccc(N2CC(C(=O)Nc3ccc(-c4n[nH]c(=O)c5ccccc45)cc3)CC2=O)cc1 (stereo not shown)    101 to 1000 nM
O=C(Nc1ccc(-c2n[nH]c(=O)c3ccccc23)cc1)c1ccnn1-c1ccccc1    0.1 to 100 nM
Cc1cc(C(=O)Nc2ccc(-c3n[nH]c(=O)c4ccccc34)cc2)nn1C(C)(C)C    0.1 to 100 nM
Cc1csc(C(=O)Nc2ccc(-c3n[nH]c(=O)c4ccccc34)cc2)n1    0.1 to 100 nM
O=C(Cc1ccc(-c2n[nH]c(=O)c3ccccc23)cc1)NC1CCC1    1000 to 50000 nM

For every item in the list below, what is its measured IC50?
1. CN(C)C(=O)c1ccc2c(c1)N(C(=O)Cc1ccc(-c3n[nH]c(=O)c4ccccc34)cc1)CC2
2. COc1ccc2[nH]c(C(=O)Nc3ccc(-c4n[nH]c(=O)c5ccccc45)cc3)cc2c1
3. Cc1cc(NC(=O)Cc2ccc(-c3n[nH]c(=O)c4ccccc34)cc2)on1
4. Cc1cc(NC(=O)c2c3ccccc3nn2CCN(C)C)ccc1-c1n[nH]c(=O)c2ccccc12
5. CC(C)Oc1ccc2c(c1)N(C(=O)Cc1ccc(-c3n[nH]c(=O)c4ccccc34)cc1)CC2
6. O=C(Nc1ccc(-c2n[nH]c(=O)c3ccccc23)cc1)c1nn(CC2COC2)c2cc(F)ccc12
7. O=C(Cc1ccc(-c2n[nH]c(=O)c3ccccc23)cc1)Nc1noc2c1CCCC2

Reply:
["0.1 to 100 nM", "0.1 to 100 nM", "0.1 to 100 nM", "0.1 to 100 nM", "0.1 to 100 nM", "0.1 to 100 nM", "0.1 to 100 nM"]

For every item in the list below, what is its measured IC50?
1. Cn1nc(C(=O)Nc2ccc(-c3n[nH]c(=O)c4ccccc34)cc2)cc1OC(F)F
2. O=C(Nc1ccc(-c2n[nH]c(=O)c3ccccc23)cc1)c1cnn2cc(OCCN3CCCC3)ccc12
3. O=C(Nc1ccc(-c2n[nH]c(=O)c3ccccc23)cc1)C1CCN(Cc2ccccc2)CC1
4. O=C(Nc1ccc(-c2n[nH]c(=O)c3ccccc23)c(CO)c1)c1cnn2ccccc12

Reply:
1: 0.1 to 100 nM; 2: 0.1 to 100 nM; 3: 1000 to 50000 nM; 4: 0.1 to 100 nM

###

- ASSAYED_SYSTEM: ROCK2 (Homo sapiens (Human), UniProt O75116)
- EXPERIMENT_NOTES: ROCK assay (LABCHIP peptide phosphorylation), ROCK2
- Type: biochemical
- CONDITION_SUMMARY: 5 μM ATP, 1.5 μM peptide substrate
pIC50: −log10 of the molar value.
METRIC: pIC50

CC(C)n1nc(C(=O)Nc2ccc(-c3n[nH]c(=O)c4ccccc34)cc2)c2ccccc21 [Example 132]    7.00 to 10.00
CC(C)n1nc(C(=O)Nc2ccc(-c3n[nH]c(=O)c4ccccc34)c(CO)c2)c2ccccc21 [Example 364]    7.00 to 10.00

For every item in the list below, what is its measured pIC50?
1. O=C(Nc1ccc(-c2n[nH]c(=O)c3ccccc23)cc1)c1cnn(CCCN2CCCC2)c1 [Example 399]
2. O=C(Cc1ccc(-c2n[nH]c(=O)c3ccccc23)cc1)Nc1ccncc1 [Example 7]
3. O=C(Cc1ccc(-c2n[nH]c(=O)c3ccccc23)cc1)N1CCc2ccccc2C1 [Example 4]
4. Cc1cccc(N2CCC(C(=O)Nc3ccc(-c4n[nH]c(=O)c5ccccc45)cc3)C2=O)c1 (stereo not shown) [Example 209]
5. Cc1c(C(=O)Nc2ccc(-c3n[nH]c(=O)c4ccccc34)cc2)nnn1-c1ccccc1F [Example 222]
6. O=C(Cc1ccc(-c2n[nH]c(=O)c3ccccc23)cc1)NCC1CC1 [Example 14]
7. O=C(Nc1ccc(-c2n[nH]c(=O)c3ccccc23)cc1)C1Cc2cc(O)ccc2O1 (stereo not shown) [Example 106]

Reply:
["6.00 to 7.00", "7.00 to 10.00", "6.00 to 7.00", "6.00 to 7.00", "7.00 to 10.00", "4.30 to 6.00", "7.00 to 10.00"]

For every item in the list below, what is its measured pIC50?
1. O=C(Nc1ccc(-c2n[nH]c(=O)c3ccccc23)cc1)N1CC2(CCNCC2)c2ccccc21 [Example 371]
2. CCn1ccc(C(=O)Nc2ccc(-c3n[nH]c(=O)c4ccccc34)cc2)n1 [Example 204]
3. CC(C)(O)COc1ccc2c(c1)N(C(=O)Cc1ccc(-c3c[nH]c(=O)c4ccccc34)cc1)CC2 [Example 288]
4. CCn1c(C(=O)Nc2ccc(-c3n[nH]c(=O)c4ccccc34)cc2)cc2ccccc21 [Example 107]
5. COc1ccc2c(=O)[nH]cc(-c3ccc(NC(=O)N4CCc5ccccc54)cc3C)c2c1 [Example 323]

Reply:
6.00 to 7.00
7.00 to 10.00
7.00 to 10.00
7.00 to 10.00
7.00 to 10.00

For every item in the list below, what is its measured pIC50?
1. O=C(Nc1ccc(-c2n[nH]c(=O)c3ccccc23)cc1)c1csc(-c2ccncc2)n1 [Example 45]
2. O=C(Nc1ccc(-c2n[nH]c(=O)c3ccccc23)cc1)c1ccc(N2CCOCC2)cc1 [Example 63]

Reply:
["7.00 to 10.00", "7.00 to 10.00"]
